// provenance: patent US8362018B2

Known CC50 of a selection of molecules
- assayMethodText: cytotoxicity measurement (CC50), Table 13
- Type: cell-based
- conditionContext: human, Huh7 cells

Please review the entries below; each comes with its answer.
For the molecule "COc1cc(CNc2nccn3c(-c4ccc(O)cc4)cnc23)cc(OC)c1OC" , what CC50 is on record?
< 35 µM

For the molecule "Cc1ccccc1CNc1nccn2c(-c3ccc(O)cc3)cnc12" , what CC50 is on record?
< 35 µM

For the molecule "O=C(O)c1ccc(CNc2nccn3c(-c4ccc(O)cc4)cnc23)cc1" , what CC50 is on record?
> 35 µM

For the molecule "CS(=O)(=O)Nc1cccc(-c2cnc3c(NCCc4ccncc4)nccn23)c1" , what CC50 is on record?
> 35 µM

For the molecule "Cc1nc2c(NCc3ccc(S(N)(=O)=O)cc3)nccn2c1-c1ccc(O)c([N+](=O)[O-])c1" , what CC50 is on record?
> 35 µM

For the molecule "COc1cc(-c2c(C)nc3c(NCc4ccc(S(N)(=O)=O)cc4)nccn23)ccc1O" , what CC50 is on record?
> 35 µM

For the molecule "COc1ccc(-c2cnc3c(NCc4ccc(C(=O)O)cc4)nccn23)cc1OC" , what CC50 is on record?
> 35 µM

# evaluate next
For the molecule "OCc1ccc(-c2cnc3c(NCc4ccc5c(c4)OCO5)nccn23)cc1" , what CC50 is on record?
< 35 µM
